The reported numbers originate from patent US8546376B2.

measurement.target: AKT1 (Homo sapiens, UniProt P31749)
Sequence (P31749 whole entry): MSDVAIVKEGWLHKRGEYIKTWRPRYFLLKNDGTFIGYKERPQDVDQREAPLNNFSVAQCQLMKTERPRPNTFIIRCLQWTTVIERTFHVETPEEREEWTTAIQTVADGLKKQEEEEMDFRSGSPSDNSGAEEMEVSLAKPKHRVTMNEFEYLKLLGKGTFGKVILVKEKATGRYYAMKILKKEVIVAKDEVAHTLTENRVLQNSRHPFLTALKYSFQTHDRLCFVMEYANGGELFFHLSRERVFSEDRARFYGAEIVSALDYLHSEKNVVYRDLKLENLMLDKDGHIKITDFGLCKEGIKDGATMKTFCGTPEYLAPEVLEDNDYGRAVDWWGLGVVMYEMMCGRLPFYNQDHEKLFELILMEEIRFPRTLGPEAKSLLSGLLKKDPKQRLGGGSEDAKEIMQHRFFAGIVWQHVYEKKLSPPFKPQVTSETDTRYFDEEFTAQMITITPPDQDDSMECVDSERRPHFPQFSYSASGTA
test.protocol: AKT Kinase Assay (IMAP fluorescent polarisation) vs AKT1
condition.parameters: activated AKT1, FAM Crosstide substrate
pIC50: −log10 of the molar value. Structures can show the parent of a compound that is named as a salt.
property: pIC50

If you can, please state the reported pIC50 value of NC1(c2ccc(-c3c(-c4ccccc4)oc4c(Oc5ccccn5)nccc4c3=O)cc2)CCC1 [Example 103, hydrochloride] .
≥ 6.00

Try NC1(c2ccc(-c3c(-c4ccccc4)oc4nc(Cl)ccc4c3=O)cc2)CCC1 next.
5.00 to 6.00

Try Cn1nc2c3oc(-c4ccccc4)c(-c4ccc(C5(N)CCC5)cc4)c(=O)c3ccn2c1=O [Example 64, hydrochloride] next.
≥ 6.00

Try CC(C)n1cc2ccc3c(=O)c(-c4ccc(C5(N)CCC5)cc4)c(-c4ccccc4)oc3c2n1 [Example 84, hydrochloride] next.
≥ 6.00

Try NC1(c2ccc(-c3c(-c4ccccc4)oc4ccc(F)cc4c3=O)cc2)CCC1 next.
5.00 to 6.00

Try CCc1nccc2c(=O)c(-c3ccc(C4(N)CCC4)cc3)c(-c3ccccc3)oc12 next.
≥ 6.00

Try Cn1cc(-c2nccc3c(=O)c(-c4ccc(C5(N)CCC5)cc4)c(-c4ccccc4)oc23)cn1 [Example 101, hydrochloride] next.
≥ 6.00

Try NC1(c2ccc(-c3c(-c4ccccc4)oc4ncccc4c3=O)cc2)CCC1 next.
5.00 to 6.00

Try COc1cc2oc(-c3ccccc3)c(-c3ccc(C4(N)CCC4)cc3)c(=O)c2cc1C(N)=O next.
5.00 to 6.00

Try NC1(c2ccc(-c3c(-c4ccccc4)oc4c(OCCO)nccc4c3=O)cc2)CCC1 next.
≥ 6.00

Try COc1ccccc1-c1nccc2c(=O)c(-c3ccc(C4(N)CCC4)cc3)c(-c3ccccc3)oc12 next.
≥ 6.00

Try NC1(c2ccc(-c3c(-c4ccccc4)oc4c(-c5c[nH]nn5)cccc4c3=O)cc2)CCC1 next.
≥ 6.00

Try COc1cccc2c(=O)c(-c3ccc(C4(N)CCC4)cc3)c(-c3ccccc3)oc12 next.
5.00 to 6.00

Try NC1(c2ccc(-c3c(-c4ccccc4)oc4c(-c5cn[nH]c5)nccc4c3=O)cc2)CCC1 [Example 80, hydrochloride] next.
≥ 6.00

Try CCn1cc2ccc3c(=O)c(-c4ccc(C5(N)CCC5)cc4)c(-c4ccccc4)oc3c2n1 [Example 82, hydrochloride] next.
≥ 6.00

Try NC1(c2ccc(-c3c(-c4ccccc4)oc4cc(OC(F)(F)F)ccc4c3=O)cc2)CCC1 next.
< 5.00

Try N#CCn1ncc2ccc3c(=O)c(-c4ccc(C5(N)CCC5)cc4)c(-c4ccccc4)oc3c21 next.
≥ 6.00

Try NC1(c2ccc(-c3c(-c4ccccc4)oc4c(-n5ccnc5)nccc4c3=O)cc2)CCC1 next.
≥ 6.00

Try NC1(c2ccc(-c3c(-c4ccccc4)oc4c(-c5cn[nH]c5)cccc4c3=O)cc2)CCC1 [Example 52, hydrochloride] next.
≥ 6.00

Try NC1(c2ccc(-c3c(-c4ccccc4)oc4c(ccn5c(=O)[nH]nc45)c3=O)cc2)COC1 next.
≥ 6.00

Try NC1(c2ccc(-c3c(-c4ccccc4)oc4c(=O)n(CCO)ccc4c3=O)cc2)CCC1 [Example 43, hydrochloride] next.
< 5.00

Try Cn1cnc2c3oc(-c4ccccc4)c(-c4ccc(C5(N)CCC5)cc4)c(=O)c3cc(Cl)c21 [Example 62, hydrochloride] next.
≥ 6.00

Try NC1(c2ccc(-c3c(-c4ccccc4)oc4c(cc(Cl)c5nc[nH]c54)c3=O)cc2)CCC1 next.
≥ 6.00

Try Cn1nc(Cl)c2ccc3c(=O)c(-c4ccc(C5(N)CCC5)cc4)c(-c4ccccc4)oc3c21 [Example 100, hydrochloride] next.
≥ 6.00

Try NC1(c2ccc(-c3c(-c4ccccc4)oc4c(ccc5nc(C(F)F)[nH]c54)c3=O)cc2)CCC1 next.
≥ 6.00

Try NC1(c2ccc(-c3c(-c4ccccc4)oc4cc(F)ccc4c3=O)cc2)CCC1 [Example 37, hydrochloride] next.
≥ 6.00

Try NC1(c2ccc(-c3c(-c4ccccc4)oc4ccc(OC(F)(F)F)cc4c3=O)cc2)CCC1 next.
< 5.00

Try NC1(c2ccc(-c3c(-c4ccccc4)oc4c(-c5ccc(C6(N)CCC6)cc5)nccc4c3=O)cc2)CCC1 next.
≥ 6.00

Try CCn1ncc2ccc3c(=O)c(-c4ccc(C5(N)CCC5)cc4)c(-c4ccccc4)oc3c21 [Example 81, hydrochloride] next.
≥ 6.00

Try COc1cc2oc(-c3ccccc3)c(-c3ccc(C4(N)CCC4)cc3)c(=O)c2cc1C#N next.
5.00 to 6.00

Try NC1(c2ccc(-c3c(-c4ccccc4)oc4c(ccc5cnn(CCO)c54)c3=O)cc2)CCC1 [Example 85, hydrochloride] next.
≥ 6.00
